Just for reference, paper PMC10819771 is where these values come from.

Here the recorded pKd is given for each entry.
- TESTED_SYSTEM: c-MYC
- METHOD_NOTES: Native electrospray mass spectrometry, c-MYC
- Type: binding
- EXPERIMENTAL_SETUP: second binding event (2:1 complex); 10 µM DNA, 20 µM ligand; read-out: Kd2 c-MYC
pKd: −log10 of the molar value.

[
  {
    "MOLECULE": "CN1CCN(CCCCNCc2ccc(-c3cc(-c4ccc(CNCCCCN5CCN(C)CC5)cc4)c4cc(-c5ccccc5)ccc4n3)cc2)CC1 [Compound 13d]",
    "pKd": 3.36
  },
  {
    "MOLECULE": "CN(C)CCCNCc1ccc(-c2nc(-c3ccc(CNCCCN(C)C)cc3)c3cc(-c4ccccc4)ccc3n2)cc1 [Compound 12b]",
    "pKd": 4.00
  },
  {
    "MOLECULE": "CN(C)CCCNCc1ccc(-c2cc(-c3ccc(CNCCCN(C)C)cc3)c3cc(-c4ccccc4)ccc3n2)cc1 [Compound 13a]",
    "pKd": 4.44
  },
  {
    "MOLECULE": "CN1CCN(CCCCNCc2ccc(-c3nc(-c4ccc(CNCCCCN5CCN(C)CC5)cc4)c4cc(-c5ccccc5)ccc4n3)cc2)CC1 [Compound 12e]",
    "pKd": 4.13
  }
]
